target: recombinant full-length murine PLIN5 (Mus musculus, UniProt Q8BVZ1); assay: Intrinsic tryptophan fluorescence quenching binding assay, PLIN5

[
  {
    "smiles.text": "CCCCCCCC/C=C\\CCCCCCCC(=O)O",
    "system.tested": "recombinant full-length murine PLIN5 (Mus musculus, UniProt Q8BVZ1)",
    "Kd [nM]": 89
  },
  {
    "smiles.text": "CCCCCC/C=C\\CCCCCCCC(=O)O",
    "system.tested": "recombinant full-length murine PLIN5 (Mus musculus, UniProt Q8BVZ1)",
    "Kd [nM]": 82
  }
]

###

Target protein (sequence): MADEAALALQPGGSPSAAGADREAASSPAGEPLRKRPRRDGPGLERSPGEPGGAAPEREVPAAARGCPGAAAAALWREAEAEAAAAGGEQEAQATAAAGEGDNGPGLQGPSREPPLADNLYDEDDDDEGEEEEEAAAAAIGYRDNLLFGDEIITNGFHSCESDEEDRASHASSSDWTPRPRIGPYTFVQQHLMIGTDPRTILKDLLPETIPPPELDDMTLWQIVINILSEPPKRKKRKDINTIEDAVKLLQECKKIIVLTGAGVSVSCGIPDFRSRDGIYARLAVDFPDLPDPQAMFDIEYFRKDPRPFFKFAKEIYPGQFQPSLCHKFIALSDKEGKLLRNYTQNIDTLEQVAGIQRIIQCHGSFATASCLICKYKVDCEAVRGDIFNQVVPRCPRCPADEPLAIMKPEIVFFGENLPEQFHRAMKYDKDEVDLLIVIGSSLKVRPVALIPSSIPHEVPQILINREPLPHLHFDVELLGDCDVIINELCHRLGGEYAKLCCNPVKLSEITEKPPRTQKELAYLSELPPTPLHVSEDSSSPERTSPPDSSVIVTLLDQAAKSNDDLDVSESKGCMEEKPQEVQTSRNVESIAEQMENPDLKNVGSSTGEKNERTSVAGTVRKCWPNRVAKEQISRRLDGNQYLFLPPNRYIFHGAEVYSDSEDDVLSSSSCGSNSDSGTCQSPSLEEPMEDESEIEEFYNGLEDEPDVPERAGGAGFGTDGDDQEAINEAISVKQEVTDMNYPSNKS
pKd: −log10 of the molar value.
Entries and their pKd

[
  {
    "compound": "CCCCCC/C=C\\CCCCCCCC(=O)O [16:1, palmitoleic acid]",
    "pKd": 7.00
  },
  {
    "compound": "CCCCCCCC/C=C\\CCCCCCCC(=O)O [18:1, oleic acid]",
    "pKd": 7.09
  }
]

###

Target sequence: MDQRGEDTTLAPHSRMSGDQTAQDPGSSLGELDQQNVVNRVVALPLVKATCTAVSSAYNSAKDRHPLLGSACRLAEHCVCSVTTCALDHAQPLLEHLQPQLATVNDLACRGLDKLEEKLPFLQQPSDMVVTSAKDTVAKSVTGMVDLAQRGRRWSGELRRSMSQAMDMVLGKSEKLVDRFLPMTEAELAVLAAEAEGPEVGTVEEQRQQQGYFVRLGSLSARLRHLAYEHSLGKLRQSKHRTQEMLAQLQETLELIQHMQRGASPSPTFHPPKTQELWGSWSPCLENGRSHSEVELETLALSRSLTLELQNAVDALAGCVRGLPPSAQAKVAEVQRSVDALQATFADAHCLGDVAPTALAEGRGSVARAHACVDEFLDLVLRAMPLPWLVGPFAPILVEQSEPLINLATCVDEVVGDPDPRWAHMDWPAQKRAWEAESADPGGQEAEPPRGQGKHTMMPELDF
pKi: −log10 of the molar value.
Each entry below carries its reported pKi.

[
  {
    "compound": "CCCCCCCC/C=C\\CCCCCCCC(=O)O [18:1, oleic acid]",
    "pKi": 5.40
  },
  {
    "compound": "CCCCCC/C=C\\CCCCCCCC(=O)O [16:1, palmitoleic acid]",
    "pKi": 5.00
  },
  {
    "compound": "CCCCCCCCCCCCCCCCCC(=O)O [18:0, stearic acid]",
    "pKi": 4.75
  }
]

The measurements presented in this section are drawn from paper PMC7036014.
